The reported measurements were obtained from the supplement of paper PMC10567573.

B1: NETO1 (parent)
chain: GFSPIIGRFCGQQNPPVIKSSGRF

- Variants of: B1
- methodNotes: protein stability index of a GFP-peptide fusion (GPS, HEK-293T) (PSI 1-6); higher = more stable;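 note: lentivirally expressed fusions sorted by FACS into six bins by GFP to DsRed ratio, PSI derived from sequencing read proportions per bin multiplied by bin number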
- testParameters: c terminus: a fixed tail appended
This section presents variants with their documented protein stability index values.
Answer with a number only.

Solved cases (8 shown):
[[record]]
mutation = "R8S"
measuredendpoint = "protein stability index"
observed = 2.05

[[record]]
mutation = "F2C"
measuredendpoint = "protein stability index"
observed = 2.73

[[record]]
mutation = "S20I"
measuredendpoint = "protein stability index"
observed = 1.58

[[record]]
mutation = "K19S"
measuredendpoint = "protein stability index"
observed = 2.48

[[record]]
mutation = "F24P"
measuredendpoint = "protein stability index"
observed = 2.51

[[record]]
mutation = "R23Q"
measuredendpoint = "protein stability index"
observed = 1.56

[[record]]
mutation = "F24Y"
measuredendpoint = "protein stability index"
observed = 2.4

[[record]]
mutation = "G7A"
measuredendpoint = "protein stability index"
observed = 1.73


*Q* Which protein stability index is listed for `G11A` ?
*A* 2.01
